Test system: mice, ADJ-PC-20 plasma cell tumor sc, T/C %
Test: NCI In Vivo Anticancer Drug Screen. Data for tumor model ADJ-PC-20 Plasma Cell (subcutaneous) in unknown mice
Details: endpoint: mean tumor weight; dose: 125.0 mg/kg/injection; schedule: Q01DX010 (ip); vehicle: carboxymethylcellulose (CMC); higher = larger tumour
Inconclusive results are not listed.
// T/C lookup, one value per entry

COMPOUND: OCC1OC(n2cnc3c(Cl)ncnc32)C(O)C1O (configuration not stated)
T/C: 100 % of control
//
COMPOUND: O=c1cn[nH]c(=O)[nH]1
T/C: 75 % of control
//
COMPOUND: Clc1ncnc2nc[nH]c12
T/C: 4 % of control
//
COMPOUND: O=CCC(O)C(O)C(O)CO (configuration not stated)
T/C: 115 % of control
//
COMPOUND: CCOC(=O)NP(=O)(N1CC1(C)C)N1CC1(C)C (configuration not stated)
T/C: 68 % of control
//
COMPOUND: O=c1[nH]c(=O)n(C2CC(O)C(CO)O2)cc1Br (configuration not stated)
T/C: 74 % of control
//
COMPOUND: O=c1[nH]c(=O)n(C2CC(O)C(CO)O2)cc1I (configuration not stated)
T/C: 32 % of control
